Every entry's value here was drawn from PubChem BioAssay (NCI).

Could you please report measured growth for the items listed next?
# Test system: IGROV1 ovarian
# test: NCI-60 one-dose screen, 48 h (100 = growth as untreated, 0 = no growth, -100 = all killed)
# assaySetup: 10 µM unless noted
About 83,000 compounds went through this panel and 20% of them were active in at least one assay; those are over-represented in the sample as a whole.
Answers are plain numbers, in %.

Reference set, count: 3
# molecularString, valueObserved
rows = [
    ("O=S(=O)(Nc1cc(Cl)c(F)c(Cl)c1)c1ccc(-c2cnc(C3CC3)o2)cc1", 43.5),
    ("COC(=O)c1c(C(=O)OC)c2n(CC(=O)Nc3cccc4cccnc34)c3ccccc3n2c1C(=O)c1ccc(C)cc1", 97.6),
    ("O=S(=O)(Nc1ccc(C2CC2)cc1)c1ccc(-c2cnc(C3CC3)o2)cc1", 58.2),
]

API: the following record is the query input.
## Input What growth value was documented for this compound, "O=C(NCCNc1cc(-c2cn(-c3ccccc3)nc2-c2cccc(O)c2)ccn1)Nc1ccc(Cl)c(C(F)(F)F)c1" ?
## Output 69
